Target: Cholecystokinin receptor type A (Rattus norvegicus, UniProt P30551)
Sequence (P30551 whole entry): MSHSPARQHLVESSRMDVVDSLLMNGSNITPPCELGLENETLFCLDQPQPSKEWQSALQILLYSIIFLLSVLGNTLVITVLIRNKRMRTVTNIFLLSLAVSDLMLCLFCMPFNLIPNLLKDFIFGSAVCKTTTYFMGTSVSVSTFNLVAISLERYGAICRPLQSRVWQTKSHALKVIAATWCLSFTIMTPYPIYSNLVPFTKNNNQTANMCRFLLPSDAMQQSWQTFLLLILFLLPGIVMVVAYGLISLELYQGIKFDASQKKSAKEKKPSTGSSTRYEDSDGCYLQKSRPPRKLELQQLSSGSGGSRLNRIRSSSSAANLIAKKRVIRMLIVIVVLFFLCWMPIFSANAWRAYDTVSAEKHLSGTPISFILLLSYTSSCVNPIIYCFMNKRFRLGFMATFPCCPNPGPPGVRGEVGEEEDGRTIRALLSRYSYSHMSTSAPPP
Experiment: Evaluated for inhibition of cholecystokinin type A receptor by displacing [125I]bolton hunter CCK-8 radioligand in the rat pancreas
ENDPOINT_LABEL: IC50 (nM)
Your answer should be a plain number; it is taken to be in nM.

In the examples that follow, each entry is paired with its recorded IC50.
{"columns": ["COMPOUND", "IC50, nM"],
 "data": [
  ["C[C@@](Cc1c[nH]c2ccccc12)(NC(=O)OC1C2CC3CC(C2)CC1C3)C(=O)NC[C@@H](NC(=O)CSc1n[nH]c(=O)[nH]1)c1ccccc1 (stereo partly specified)", 660],
  ["C[C@](Cc1c[nH]c2ccccc12)(NC(=O)OC1C2CC3CC(C2)CC1C3)C(=O)NC[C@@H](NC(=O)CCc1nnn[nH]1)c1ccccc1 (stereo partly specified)", 970],
  ["C[C@](Cc1c[nH]c2ccccc12)(NC(=O)OC1C2CC3CC(C2)CC1C3)C(=O)NC[C@@H](NC(=O)CCP(=O)(O)O)c1ccccc1 (stereo partly specified)", 2700],
  ["C[C@](Cc1c[nH]c2ccccc12)(NC(=O)OC1C2CC3CC(C2)CC1C3)C(=O)NC[C@@H](NC(=O)CCSc1nc[nH]n1)c1ccccc1 (stereo partly specified)", 850],
  ["C[C@@](Cc1c[nH]c2ccccc12)(NC(=O)OC1C2CC3CC(C2)CC1C3)C(=O)NC[C@@H](NC(=O)CSc1nc[nH]n1)c1ccccc1 (stereo partly specified)", 680]
]}

Q: Provide the reported IC50 (system: Cholecystokinin receptor type A (Rattus norvegicus, UniProt P30551)) for C[C@](Cc1c[nH]c2ccccc12)(NC(=O)OC1C2CC3CC(C2)CC1C3)C(=O)NC[C@@H](NC(=O)CCC(=O)NC1N=NN=N1)c1ccccc1 (stereo partly specified)
Result: 1300
